tested on: T-47D breast; experiment: NCI-60 one-dose screen, 48 h; conditions: 10 µM unless noted
The panel holds about 83,000 compounds, 20% with a hit somewhere; the sample as a whole holds those more often. Calls of active or inactive are those of the source. The calls were made as follows: active = growth percent below 10; inactive = the rest.
Write down the outcome that applies. Available outcomes: active, inactive

Molecule: N#Cc1c(Nc2ccccc2)nn2cc(-c3nc4ccccc4s3)c(N)nc12
Category: inactive
--
Molecule: Cc1ccccc1-c1cc(Cc2ccc(F)cc2)c(=O)[nH]n1
Category: inactive
--
Molecule: Cc1cc(NC(=O)c2cnc(N3CCN(CCOCCOCCOCCOCCC(=O)N[C@H](C(=O)N4C[C@H](O)C[C@H]4C(=O)N[C@@H](C)c4ccc(-c5scnc5C)cc4)C(C)(C)C)CC3)cn2)c2ncccc2c1
Category: inactive
--
Molecule: Cc1[nH]n(C(=O)c2ccncc2)c(=O)c1N=Nc1ccc(F)c(Cl)c1
Category: inactive
--
Molecule: COc1cccc(C(Cc2ccccc2)Nc2ccccc2)c1OC (centres undefined)
Category: inactive

Lookup: What was the test verdict on CCCCN(CCCC)CCc1c(C)cc(C)c(CCN(CCCC)CCCC)c1O ?
Found: active

Lookup: What was the test verdict on COC(=O)N[C@H]1CCc2cc(OC)c(OC)c(OC)c2-c2ccc(SC)c(=O)cc21 ?
Found: inactive

* * *

system: HCT-15 colon; test: NCI-60 one-dose screen, 48 h (100 = growth as untreated, 0 = no growth, -100 = all killed); settings: 10 µM unless noted
The panel holds about 83,000 compounds, 20% with a hit somewhere; the sample as a whole holds those more often.
Parameter: growth (%)
Respond numerically; units are % and should not be typed.

Compound: COc1cc(C2CC(c3cccc(Nc4ccncc4)c3)=NN2C(C)=O)cc(OC)c1OC (configuration not stated)
growth, %: 98

Compound: CC(C)(C)CC(C)(C)Nc1c(-c2ccc3c(c2)OCO3)nc2cnccn12
growth, %: 84.1

Compound: N/C(=N\N=C\c1cc2ccccc2s1)N/N=C/c1cc2ccccc2s1
growth, %: 105

Compound: O=C(/C=C/c1ccc[nH]1)c1ccc(-n2ccc(C(F)(F)F)n2)cc1
growth, %: 86.6

Compound: COc1ccccc1/C=N/NC1=NC2C(N1)N(C)C(=O)N2C (configuration not stated)
growth, %: 104

Lookup: Value lookup for growth; key = N#C/C(=C\c1ccc(Br)cc1)n1nnc2cccc(F)c21
Found: 1.81

Lookup: Value lookup for growth; key = O=S(=O)(NCCNc1nccc(-c2c(-c3ccc(F)c(O)c3)nc3sccn23)n1)c1ccccc1
Found: 92.3

Lookup: Value lookup for growth; key = O=C1NC(=O)C(=Cc2cn(Cc3ccccn3)c3ccccc23)C(=O)N1
Found: 102

* * *

tested on: CCRF-CEM leukemia; test: NCI-60 one-dose screen, 48 h (100 = growth as untreated, 0 = no growth, -100 = all killed); conditions: 10 µM unless noted
This is part of a sample that, as a whole, favours compounds with a hit. Of some 83,000 tested, about 20% had one in any assay.
Assign Yes whenever growth does not fall below 70%; assign No whenever it does.

Before answering, review these 5 worked examples.
Molecule: Cc1cccc(Oc2ccc(Nc3ncnc4ccc(NC(=O)CNCCO)cc34)cc2Cl)c1
Category: Yes

Molecule: C[C@H]1[C@H](C)CC[C@]2(CO)CC[C@]3(C)C(=CC[C@@H]4[C@@]5(C)CCCNC(C)(C)[C@@H]5CC[C@]43C)[C@H]12
Category: No

Molecule: CO[C@@H]1[C@H](N(C)C(=O)c2ccccc2)C[C@@H]2O[C@]1(C)n1c3ccccc3c3c4c(c5c6ccccc6n2c5c31)C(=O)NC4=O
Category: No

Molecule: N#Cc1ccc(-c2ccc3c(c2)NC(=O)/C3=C\c2ccc[nH]2)cc1
Category: Yes

Molecule: CCCCCCCCCCCC(=O)C(CCCCCCCCCC)C(=O)Nc1ccccc1 (stereo unspecified)
Category: Yes

Lookup: Quick check, growth >= 70%? Cc1c2c(cc[n+]1Cc1ccccc1)c1ccc(OCc3ccccc3)cc1n2Cc1ccccc1
Found: No

Lookup: Quick check, growth >= 70%? CCCCCCCCCCN=C(N)N=C(N)N
Found: No

Lookup: Quick check, growth >= 70%? CC1(c2ccccc2)NC(=O)N(CC(=O)Nc2cccc(I)c2)C1=O (stereo unspecified)
Found: Yes
